procedure text: self-splicing fitness, log relative to wild type (ln ratio); higher = more splicing; Tetrahymena group I intron in knt gene, E. coli kanamycin selection, DiMSum; sequences stand for … in CUCUCU…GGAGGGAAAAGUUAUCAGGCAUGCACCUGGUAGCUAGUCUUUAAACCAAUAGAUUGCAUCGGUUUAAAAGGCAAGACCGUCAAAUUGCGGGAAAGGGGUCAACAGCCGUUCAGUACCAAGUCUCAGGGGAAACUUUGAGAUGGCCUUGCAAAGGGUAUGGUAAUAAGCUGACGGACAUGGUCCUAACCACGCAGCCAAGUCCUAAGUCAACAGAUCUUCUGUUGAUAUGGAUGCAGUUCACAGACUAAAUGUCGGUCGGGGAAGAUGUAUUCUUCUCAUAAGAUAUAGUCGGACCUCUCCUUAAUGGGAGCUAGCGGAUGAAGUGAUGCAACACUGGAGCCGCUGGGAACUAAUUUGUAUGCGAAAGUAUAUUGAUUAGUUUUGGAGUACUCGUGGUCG;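 further: selection with 25 µg/mL kanamycin versus none on LB agar overnight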
reported conditions: 37 °C
Each entry gets Not met if its self-splicing fitness (ln) stays under -0.6, and Met if its self-splicing fitness (ln) is -0.6 or above.

| seq | category |
| --- | --- |
| AAAAAGCAAUAUUACGCAGC | Not met |
| CCACAGCAAUAUUACGGGAC | Not met |
| UCUAAGCAAUAUUACGUCUA | Not met |

Evaluate GAGAAGCAAUAUUACGUGAG : self-splicing fitness (ln) at minimum -0.6?
Not met

Evaluate UCGCAGCAAUAUUACGACAG : self-splicing fitness (ln) at minimum -0.6?
Met

Evaluate UAAGAGCAAUAUUACGAGGU : self-splicing fitness (ln) at minimum -0.6?
Not met

====

procedure text: self-splicing fitness, log relative to wild type (ln ratio); higher = more splicing; Tetrahymena group I intron in knt gene, E. coli kanamycin selection, DiMSum; sequences stand for … in CUCUCU…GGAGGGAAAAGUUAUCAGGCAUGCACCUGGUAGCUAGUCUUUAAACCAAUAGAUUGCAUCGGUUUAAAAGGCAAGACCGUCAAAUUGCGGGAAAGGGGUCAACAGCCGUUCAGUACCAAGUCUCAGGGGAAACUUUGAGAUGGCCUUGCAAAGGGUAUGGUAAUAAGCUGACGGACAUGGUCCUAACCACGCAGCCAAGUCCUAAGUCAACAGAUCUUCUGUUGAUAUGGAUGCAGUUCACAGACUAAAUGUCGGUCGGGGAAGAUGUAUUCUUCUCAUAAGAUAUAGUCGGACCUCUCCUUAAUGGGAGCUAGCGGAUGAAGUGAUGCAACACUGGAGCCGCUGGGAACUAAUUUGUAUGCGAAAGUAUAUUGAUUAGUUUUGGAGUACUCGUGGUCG
reported conditions: 30 °C
Each entry gets Criterion not met if its self-splicing fitness (ln) stays under -2, and Criterion met if its self-splicing fitness (ln) is -2 or above.

Answered cases to consult:
| seq | category |
| --- | --- |
| CCUAAGCAAUAUUACGGGGC | Criterion not met |
| AACUAGCAAUAUUACGAAGG | Criterion not met |
| GUCUAGCAAUAUUACGAACG | Criterion met |
| AGGGAGCAAUAUUACGAUCG | Criterion not met |

Evaluate GGUAAGCAAUAUUACGUUCG : self-splicing fitness (ln) at minimum -2?
Criterion met

Evaluate CCAUAGCAAUAUUACGGCUU : self-splicing fitness (ln) at minimum -2?
Criterion not met

Evaluate GAGGAGCAAUAUUACGAUGG : self-splicing fitness (ln) at minimum -2?
Criterion not met
